molecular target: cloned hTRPM8 channel (human TRPM8 gene, expressed in CHO cells) (Homo sapiens); construct: host or cells: CHO cells; assay: agonist activity on cloned hTRPM8 channel, Fluo-8 calcium kit, FLIPR; assay type: cell-based; details: stock in DMSO containing 30% by volume S-PD; read-out: EC50 (95% C.L.)
Sequence (Q7Z2W7 whole entry): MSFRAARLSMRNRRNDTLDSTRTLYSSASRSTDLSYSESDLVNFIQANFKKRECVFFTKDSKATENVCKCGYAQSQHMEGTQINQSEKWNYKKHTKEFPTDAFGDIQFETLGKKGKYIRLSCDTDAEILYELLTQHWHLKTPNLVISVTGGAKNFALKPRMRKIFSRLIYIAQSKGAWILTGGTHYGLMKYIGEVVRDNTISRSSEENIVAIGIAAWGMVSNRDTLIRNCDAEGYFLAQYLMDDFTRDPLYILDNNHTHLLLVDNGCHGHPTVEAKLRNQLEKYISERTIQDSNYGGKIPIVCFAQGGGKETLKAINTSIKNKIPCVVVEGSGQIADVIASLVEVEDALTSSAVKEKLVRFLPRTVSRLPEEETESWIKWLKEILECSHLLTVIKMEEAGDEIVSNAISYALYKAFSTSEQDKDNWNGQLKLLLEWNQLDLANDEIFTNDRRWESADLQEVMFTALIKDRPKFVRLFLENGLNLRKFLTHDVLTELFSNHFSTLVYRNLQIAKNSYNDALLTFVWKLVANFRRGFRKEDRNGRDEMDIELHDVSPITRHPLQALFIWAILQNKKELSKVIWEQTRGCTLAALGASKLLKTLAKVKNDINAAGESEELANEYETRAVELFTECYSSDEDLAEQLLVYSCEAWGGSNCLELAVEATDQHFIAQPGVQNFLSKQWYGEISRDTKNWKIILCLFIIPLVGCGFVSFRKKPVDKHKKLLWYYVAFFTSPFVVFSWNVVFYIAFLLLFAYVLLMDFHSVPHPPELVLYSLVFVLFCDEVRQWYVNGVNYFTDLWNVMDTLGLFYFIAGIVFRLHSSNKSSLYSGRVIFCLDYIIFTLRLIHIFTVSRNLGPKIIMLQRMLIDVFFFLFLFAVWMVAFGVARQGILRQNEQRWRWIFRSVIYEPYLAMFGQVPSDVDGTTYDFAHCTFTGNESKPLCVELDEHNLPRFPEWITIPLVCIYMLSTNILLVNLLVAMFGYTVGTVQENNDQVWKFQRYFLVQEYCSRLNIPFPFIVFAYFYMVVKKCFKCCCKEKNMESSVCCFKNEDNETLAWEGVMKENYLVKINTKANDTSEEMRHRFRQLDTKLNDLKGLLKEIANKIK
measurement.type: pEC50
API: returns pEC50 as number; meaning -log10 of concentration in mol/L.

Input `CCCCCCCP(=O)(C(C)C)C(C)C` . Output pEC50: 5.36

###

target: cloned hTRPM8 channel (human TRPM8 gene, expressed in CHO cells) (Homo sapiens); construct: host or cells: CHO cells; assay: agonist activity on cloned hTRPM8 channel, Fluo-8 calcium kit, FLIPR; type: cell-based; conditions: stock in DMSO containing 30% by volume R-PD; read-out: EC50 (95% C.L.)
measurement.type: pEC50
API: returns pEC50 as number; meaning -log10 of concentration in mol/L.

Field pEC50 (cloned hTRPM8 channel (human TRPM8 gene, expressed in CHO cells) (Homo sapiens)), entry CCCCCCCP(=O)(C(C)C)C(C)C [1-7, 1-(Diisopropyl-phosphinoyl)-heptane] : 5.66
